These entries and their values trace back to PubChem BioAssay AID547.

Target: Chaperone protein DnaK (Escherichia coli (strain K12)) (UniProt P0A6Y8)
Test: blockers of bacterial DnaK function – luminescence, E. coli K12, primary screen (AID 547);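 further: tested at 10 µM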
Details: DnaK chaperone assay, luminescence read-out; active compounds read low
Screen size: about 1,300 compounds; about 10 (0.8%) were called active. The sample holds actives, similar compounds and a random draw of the others, so the mix is not that of the screen.
metric_name: luminescence

For record NC(=O)N1c2ccccc2C=Cc2ccccc21 the listed luminescence is 2.7e+06 cps (inactive)

For record CCCCC1C(=O)N(c2ccccc2)N(c2ccccc2)C1=O the listed luminescence is 2.6e+06 cps (inactive)

For record N[C@@H](CCC(=O)N[C@H](CSN=O)C(=O)NCC(=O)O)C(=O)O the listed luminescence is 2.5e+06 cps (inactive)

Others:
For record O=c1[nH]c2cc(C(F)(F)F)ccc2n1-c1cc(C(F)(F)F)ccc1O the listed luminescence is 2.6e+06 cps (inactive)

For record CC(=O)NCCc1ccc(O)c(O)c1 the listed luminescence is 2.8e+06 cps (inactive)

For record Cc1cn([C@H]2C=C[C@@H](CO)O2)c(=O)[nH]c1=O the listed luminescence is 2.9e+06 cps (inactive)

For record CNC[C@H](O)c1cccc(O)c1 the listed luminescence is 2.3e+06 cps (inactive)

For record CN(C)c1cc2c(Nc3ccc4c(cnn4Cc4ccccc4)c3)ncnc2cn1 the listed luminescence is 3e+06 cps (inactive)

For record CCc1cccc(N(C)C(N)=Nc2cccc3ccccc23)c1 the listed luminescence is 2.4e+06 cps (inactive)

For record CNCCNS(=O)(=O)c1cccc2cnccc12 the listed luminescence is 2.6e+06 cps (inactive)

For record C#CC(N)CCC(=O)O (stereo unspecified) the listed luminescence is 2.7e+06 cps (inactive)

For record CC[N+](C)(C)Cc1ccccc1Br the listed luminescence is 2.5e+06 cps (inactive)
